Here we list substances with their recorded pEC50 when tested on Glucagon-like peptide 1 receptor (Homo sapiens).
Sequence (P43220 whole entry): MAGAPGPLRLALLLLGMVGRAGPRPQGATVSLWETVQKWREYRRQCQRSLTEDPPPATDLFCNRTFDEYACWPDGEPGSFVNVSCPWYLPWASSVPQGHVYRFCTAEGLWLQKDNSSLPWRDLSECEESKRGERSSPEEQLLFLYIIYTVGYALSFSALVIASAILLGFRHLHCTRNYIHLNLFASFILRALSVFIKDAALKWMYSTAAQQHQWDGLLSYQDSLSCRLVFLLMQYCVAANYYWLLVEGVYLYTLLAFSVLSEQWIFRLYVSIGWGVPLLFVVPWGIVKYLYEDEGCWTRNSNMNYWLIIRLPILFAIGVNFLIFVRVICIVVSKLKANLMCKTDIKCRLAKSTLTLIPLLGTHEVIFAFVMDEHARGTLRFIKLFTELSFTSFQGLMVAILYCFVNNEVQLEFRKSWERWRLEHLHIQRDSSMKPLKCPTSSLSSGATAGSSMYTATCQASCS
pEC50: −log10 of the molar value.

H-HAEGTFTADVAAYLEGQAAKEFIAWLVKGR-NH2 ... < 5.00

Could you now consider this next substance?
### Prompt Requested field: pEC50. Item: `H-HAEGAFTADVAAYLEGQAAKEFIAWLVKGR-NH2`
### Response < 4.00

====

Here we list substances with their recorded EC50 when tested on Glucagon-like peptide 1 receptor (Homo sapiens).

H-HAEGTFTADVAAYLEGQAAKEFIAWLVKGR-NH2 ... 158 nM

### Prompt Observed EC50 on Glucagon-like peptide 1 receptor (Homo sapiens) for `H-HAEGAFTADVAAYLEGQAAKEFIAWLVKGR-NH2` , please.
### Response > 10000 nM

====

Here we list substances with their recorded IC50 when tested on Glucagon-like peptide 1 receptor (Homo sapiens).
Dear colleague, please return just the value in nM, with no unit written.

H-HAEGAFTADVAAYLEGQAAKEFIAWLVKGR-NH2 ... 251

Could you now consider this next substance?
### Prompt Observed IC50 on Glucagon-like peptide 1 receptor (Homo sapiens) for `H-HAEGTFTADVAAYLEGQAAKEFIAWLVKGR-NH2` , please.
### Response 251

Source: ChEMBL document CHEMBL5126621
